meta.source: PubChem BioAssay AID731

Target: Peroxisome proliferator-activated receptor gamma (Homo sapiens)
Test: PPARgamma agonists recruiting SRC-3 coactivator, primary screen, biochemical (AID 731);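 further: 0% = DMSO and 100% = reference agonist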
Conditions: biochemical PPARgamma/SRC-3 coactivator recruitment assay; at 8 µM; stronger effect = higher value
In all, about 200,000 compounds went through this assay and about 520 (0.26%) were called active. Many of the other results were omitted from the sample, so actives are more common in it than they were.
Provide the reported activation of each item.
Your answer should be a plain number; it is taken to be in %.

Reported activation for CC(C)[C@H](NC(=O)c1ccc(F)cc1)C(=O)OCC(=O)NC(=O)c1cccn1C : what is it? 1.86

Now the compound Cc1cc(O)c(NC(=O)c2ccc(C)c([N+](=O)[O-])c2)cc1C -0.67

Ok, now Fc1ccc(COc2cccc(-c3n[nH]c(=S)o3)c2)cc1 29.3

Try this compound next: O=C(NCc1cccs1)c1ccc(Br)o1 1.17

Request: CCO/N=C(/C)c1c(O)cc(-c2ccccc2)n(-c2ccccc2)c1=O 0.18

# iterate: Cc1nc2ccccc2cc1OCc1ccc(F)cc1 4.08

Consider next the compound C/C(=N/NC(=O)C1COc2ccccc2O1)c1ccco1 (configuration not stated) in the same way. -2.9

* * *

Exercise: for every item that follows, state its recorded activation.
Biological target: Peroxisome proliferator-activated receptor gamma (Homo sapiens)
Test: PPARgamma agonists recruiting SRC-3 coactivator, primary screen, biochemical (AID 731);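 further: 0% = DMSO and 100% = reference agonist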
Conditions: biochemical PPARgamma/SRC-3 coactivator recruitment assay; at 8 µM; stronger effect = higher value
Screen size: about 200,000 compounds; about 520 (0.26%) were called active. What follows is part of a selection rich in actives, with near analogues and random picks from the rest.
Answer format: numeric, % implied, no suffix.

Form field: reported activation of O=C(CSc1nc2c(cnn2-c2ccc(F)cc2)c(=O)[nH]1)N1CCCCCC1 -0.08

How about CNc1ccc(NC(C)=O)cc1[N+](=O)[O-] ? -3.86

Repeat for the following compound: O=C(/C=C/Nc1ccccc1OC(F)(F)F)C(F)(F)F 1.89

Try this compound next: O=C(Nc1ccc2c(c1)CCC2)c1ccc(Br)s1 0.47

# iterate: O=C(Oc1ccccc1)Oc1ccc2c(c1)oc(=O)c1ccccc12 57.2

Same read-out for Cn1nnnc1SCC(=O)Nc1nc2ccccc2s1 ? -4.08

Next entry: CCOC(=O)CNC(=O)CSc1ccc2nnc(-c3cccnc3)n2n1 -2.1

What about C=CCNC(=O)CSc1nc2sc(C)c(C)c2c(=O)[nH]1 ? -3.68

Further, for Cc1nc(N2CCOCC2)c2c(C)c(C(=O)Nc3ccc(C(F)(F)F)cc3)sc2n1 ? 6.42

Would you mind doing COc1ccccc1N1CCN(/N=C\C(Br)=C\c2ccccc2)CC1 as well? 0.45

Could you do the same for COc1cccc(NC(=O)CN(C)CC(=O)Nc2ccc3c(c2)CCC3)c1 , please? 0.47

Entry Cc1cc[n+](-c2[nH]c(=O)sc2/C=N/NC(=O)c2ccccc2[O-])cc1C please 1.17

How about this compound: O=S(=O)(NC1CCCCC1)c1ccc(F)c2ccccc12 7.29

Moving on to CN(Cc1cccc2ncccc12)C(=O)CC1C(=O)NCCN1Cc1ccc(F)cc1 (stereo unspecified) -0.7

Same lookup for Cc1ccc2[nH]c3c(=O)n(Cc4ccccn4)cnc3c2c1 , please. 8.8

What do you have for O=C(Cc1ccccc1)NNS(=O)(=O)c1ccc([N+](=O)[O-])cc1 ? 1.7

O=[N+]([O-])c1ccc(Sc2n[nH]c(-c3ccco3)n2)nc1 ? 2.58

CC1CC(C)CN(CCC(=O)Nc2ccc3c(c2)CCC3)C1 (stereo unspecified) , same question. 6.43

O=C(O)CCCCOn1ccnc1 , same question. -4.37

Try the compound COc1cc(C)c(S(=O)(=O)N2CCOCC2)c(C)c1C -6.91

Next compound up: Cc1ccn(CC(=O)N2N=C(C(F)F)CC2(O)C(F)F)n1 (stereo unspecified) 3.61

Also Cn1cc(-c2ccccc2)cc(C#N)c1=O ? 1.51

And for Cc1ccc(-c2cc(C(=O)N/N=C/C=C/c3ccccc3)n[nH]2)o1 ? -0.56

Lookup COc1ccc(/C=N/Nc2ncnc3sc4c(c23)CCCC4)cc1O -0.73

Please give the result for O=S(=O)(c1ccc(F)cc1)N1CCN(C(=S)NC2CCCC2)CC1 too. 1.45

Follow-up item: COc1cc(NC(=O)c2cc([N+](=O)[O-])ccc2Br)ccc1NC(=O)c1ccco1 -4.35

Could you do the same for CN1CCN(C(=O)/C(=C\c2cccs2)NC(=O)c2cccs2)CC1 , please? -1.89

Same thing, different compound: COc1cc(/C=C/C2=CC(C)(C)NC(=S)N2)cc(OC)c1OC -3.19

Then CCOc1ccc(/C=N/NC(=O)C(C)Sc2ccccn2)cc1OCC (stereo unspecified) ? 4.85

Record: O=C(NC(=S)Nc1cccc(-c2ccc(CO)o2)c1)c1cccs1 9.26

And then O=C(O)COc1ccc(/C=N/O)cc1Br , what is it? 3.92

Item: [O-][n+]1onc2c1CCc1[nH]c(-c3ccccc3)nc1-2 0.76

Another: Cc1ccc(CN(C)CC(=O)Nc2cccc([N+](=O)[O-])c2)o1 -1.37

Also check CC(C)Cn1c(N2CCN(C(=O)/C=C/c3ccccc3)CC2)nc2ccccc21 9.26

What do we get for CC(=O)c1sc2nc(SCC(=O)N3CCCCC3)[nH]c(=O)c2c1C ? 32.9

Now the same for CCCC(c1nnnn1C(C)(C)C)N1CCN(Cc2ccccc2)CC1 (stereo unspecified) 0.32

Likewise for CCCOc1ccc(N/C=C/C(=O)C(C)(C)C)cc1 ? 0.22

Entry to check: CCc1cc(C(=O)OC)c(NC(=O)CC2Sc3ccc(C(F)(F)F)cc3NC2=O)s1 (stereo unspecified) -4.95

Would you kindly repeat that for COc1cccc(NC(=O)c2ccc(S(=O)(=O)N(C)C)cc2)c1 ? -1.26

Same again, this time with O=C(N/C(=C\c1ccc(F)cc1)C(=O)N1CCCCCC1)c1ccccc1 2.6

O=C1C2C3C=CC(C4CC34)C2C(=O)N1c1nccs1 (stereo unspecified) ? -3

Also, Cn1c(C(=O)OC(C(=O)NC2CCCCC2)c2ccccn2)cc2sccc21 (stereo unspecified) please. 0.71

Further, for Cc1c(Cc2ccccc2)c(=O)oc2cc(OCC(N)=O)ccc12 ? 1.07

Again, but for O=C(OCc1cc(Cl)ccc1OC(F)F)c1cccnc1 0.24

And then CCCCC1N2CC3([N+](=O)[O-])CN1CC([N+](=O)[O-])(C2)C3(C)C (stereo unspecified) , what is it? 3.26

Try this compound next: C/C(=N\NS(=O)(=O)c1ccc(Cl)cc1)c1ccc(NC(=O)c2ccco2)cc1 7.63

* * *

Target: Peroxisome proliferator-activated receptor gamma (Homo sapiens)
Assay: PPARgamma agonists recruiting SRC-3 coactivator, primary screen, biochemical (AID 731);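 further: 0% = DMSO and 100% = reference agonist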
Conditions: biochemical PPARgamma/SRC-3 coactivator recruitment assay; at 8 µM
Among all 200,000 compounds or so, about 520 (0.26%) were called active. Cut-off read from the data, not from the text of the source: active = activation above about 23%; inactive = the rest. Many of the other results were omitted from the sample, so actives are more common in it than they were.
// allowed return values: 1 (active), 0 (inactive)

Could you kindly confirm the outcome this assay logged for Cc1cc(C(=O)CSc2nc(N)cc(=O)[nH]2)c(C)n1CCc1ccc(Cl)cc1 ? 0

# repeat for Cn1c(-c2sccc2OCc2cccc(C(F)(F)F)c2)n[nH]c1=S 0

Ok, now CN1CCN(c2ccc(S(=O)(=O)Nc3ccccc3)cc2[N+](=O)[O-])CC1 0

Also COc1ccc(/C(O)=C2/C(=O)C(=O)N(c3nc(C)c(C)s3)C2c2ccco2)cc1 (stereo unspecified) ? 1

# repeat for Cc1ccccc1-c1n[nH]c(=S)n1C 0

CC(OC(=O)CNS(=O)(=O)/C=C/c1ccccc1)C(=O)Nc1ccc(S(=O)(=O)N2CCCC2)cc1 (stereo unspecified) , same question. 0

Cn1c(-c2sc3cc(C(F)(F)F)cnc3c2-c2ccccc2)n[nH]c1=S , same question. 1

Same question for Cc1ccc(-c2nc(C)sc2CC(=O)O)cc1 please. 0

Quick one: COC(C(=O)NCc1ccccc1C)c1ccccc1 (stereo unspecified) 0

Then COCCN(C(=O)CCC(=O)Nc1nccs1)C(C(=O)NC(C)(C)C)c1ccc(Cl)cc1 (stereo unspecified) ? 0

Field entry: O=C(O)Cc1sc(-c2ccccc2)nc1-c1cccs1 1

And what about the compound Cc1cccc(OCCNC(=O)CSc2ccc(C(F)(F)F)cc2[N+](=O)[O-])c1 ? 0

How about O=C(O)Cc1sc(-c2ccc(C(=O)O)cc2)nc1-c1ccccc1 ? 0

Likewise for COc1ccc(/C(O)=C2\C(=O)C(=O)N(Cc3ccco3)C2c2ccc(OC)cc2OC)cc1 (stereo unspecified) ? 0

Now the same for CCOc1ccc(NC(=O)CCC(=O)n2nc(C)cc2C)cc1 0

And what about the compound CC(C)C(c1nnnn1C(C)(C)C)N1CCN(Cc2cccnc2)CC1 (stereo unspecified) ? 0

Same thing, different compound: COC(C(=O)Nc1ccc(C(C)=O)cc1)c1ccccc1 (stereo unspecified) 0

Then what about the compound Cc1cccc(OP(=O)(Nc2c(C)n(C)n(-c3ccccc3)c2=O)Oc2cccc(C)c2)c1 ? 0

CC(=O)n1cc([C@@H]2C=C(C(=O)N3CCN(Cc4ccc5c(c4)OCO5)CC3)O[C@H](OCc3ccc(CO)cc3)C2)c2ccccc21 ? 0

Item: COC(=O)c1cc(C(=O)OC)cc(N2C(=O)CC(N3CCN(c4ccccc4)CC3)C2=O)c1 (stereo unspecified) 0

Field entry: CCNCCC(=O)N1c2ccccc2Sc2ccc(NC(=O)OCC)cc21 0
